test: recombinant UMI read abundance after kanamycin selection (control-corrected) (log10(CPM+1)); higher = more efficient recombination; extreme values may be limits of the assay; sequences stand for … in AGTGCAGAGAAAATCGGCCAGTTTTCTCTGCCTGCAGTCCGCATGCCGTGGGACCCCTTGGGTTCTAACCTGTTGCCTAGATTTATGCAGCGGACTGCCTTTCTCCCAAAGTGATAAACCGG…AGGTTGGTTTCACT; site = the 11-nt donor;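 further: IS621 bridge recombinase in Escherichia coli cells against a fixed T5 target plasmid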
Please note: condition met applies when recombinant UMI read abundance (log10) is 0.02 or greater, and condition not met applies otherwise.

>>> cat("TCCCGCCCATGGACCGGTTTTCCCGGTAATCCGTATTTGGC (site TCCCGCCCTGC)")
"condition not met"
>>> cat("AGAGTGGCATGGACCGGTTTTCCCGGTAATCCGTATTTGGT (site TGAGTGGCTAC)")
"condition met"
>>> cat("CAGACGACATGGACCGGTTTTCCCGGTAATCCGTATTTGGG (site CAGTCGACTCC)")
"condition met"
>>> cat("CCTTGAGCATGGACCGGTTTTCCCGGTAATCCGTATTTGTA (site CCTTGAGCTTA)")
"condition not met"
>>> cat("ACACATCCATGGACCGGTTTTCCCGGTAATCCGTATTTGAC (site ACACATCCTGT)")
"condition met"
>>> cat("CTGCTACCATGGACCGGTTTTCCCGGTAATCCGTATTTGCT (site CTGCTACCTTG)")
"condition not met"
>>> cat("CGAATATCATGGACCGGTTTTCCCGGTAATCCGTATTTGCG (site CGAATATCTCG)")
"condition met"
>>> cat("TGCTAGTCATGGACCGGTTTTCCCGGTAATCCGTATTTGGT (site TGCTAGCCTAC)")
"condition not met"

API: above_or_equal(metric=recombinant UMI read abundance (log10), cutoff=0.02) for item CCAGCATCATGGACCGGTTTTCCCGGTAATCCGTATTTGAC (site CCAGCATCTGT)
condition not met

Determine whether measured recombinant UMI read abundance (log10) meets or exceeds 0.02 for TTTGTTCCATGGACCGGTTTTCCCGGTAATCCGTATTTGTG (site TTTGTTCCTCA)
condition not met

Say whether GGGATAGCATGGACCGGTTTTCCCGGTAATCCGTATTTGTT (site GGGATAGCTAA) shows recombinant UMI read abundance (log10) of 0.02 or more.
condition met

Item CGTTTGGCATGGACCGGTTTTCCCGGTAATCCGTATTTGAT (site CGTTTGGCTAC) with recombinant UMI read abundance (log10) of 0.02 or above?
condition met

For this sequence, is measured recombinant UMI read abundance (log10) 0.02 or higher? GGGACGTCATGGACCGGTTTTCCCGGTAATCCGTATTTGGC (site GGGACGTCTGC)
condition met

Quick check, recombinant UMI read abundance (log10) >= 0.02? CTATTATCATGGACCGGTTTTCCCGGTAATCCGTATTTGAA (site CTATTATCTTT)
condition met

Record AATTGGGCATGGACCGGTTTTCCCGGTAATCCGTATTTGAT (site AATTGGGCTAT) ; criterion: recombinant UMI read abundance (log10) no lower than 0.02. Met?
condition met

Identify whether the reported recombinant UMI read abundance (log10) of the following sequence is 0.02 or greater: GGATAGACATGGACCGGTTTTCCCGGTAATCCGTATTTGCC (site GGCTAGACTGG)
condition met
